// values below are reported growth
System: PC-3 prostate
MEASUREMENT NOTES: NCI-60 one-dose screen, 48 h (100 = growth as untreated, 0 = no growth, -100 = all killed)
COND: 10 µM unless noted
This is part of a sample that, as a whole, favours compounds with a hit. Of some 83,000 tested, about 20% had one in any assay.
The reply should be a number in %, with the unit left off.

Below are worked cases with known answers.
1) CCOC(=O)C(O)C(O)(c1ccccc1)c1ccccc1 (stereo not given)	96.8
2) CCOC(=O)c1sc(-c2ccc(OS(=O)(=O)c3ccc(C(C)(C)C)cc3)c(C=O)c2)nc1C	16.2
3) CC(=O)Nc1ccc2c(c1)Cc1c(F)cccc1-2	88.4
4) O[C@H]1CO[C@H]2[C@@H]1OC[C@@H]2Oc1ccc(Nc2ccnc(Nc3ccc(O[C@H]4CO[C@H]5[C@@H]4OC[C@@H]5O)c(Cl)c3)n2)cc1Cl	15.7

Ask: Which growth is reported for this compound? CCN(CC)CCOC(=O)N1c2ccccc2Sc2ccccc21
Result: 68.8

Ask: Which growth is reported for this compound? COc1ccc(/C=C2\COc3ccc(O)c(O)c3C2=O)c(OC)c1
Result: 49.6

----------
Tested on: MDA-MB-435 melanoma
MEASUREMENT NOTES: NCI-60 one-dose screen, 48 h (100 = growth as untreated, 0 = no growth, -100 = all killed)
COND: 10 µM unless noted
About 83,000 compounds went through this panel and 20% of them were active in at least one assay; those are over-represented in the sample as a whole.
READOUT TYPE: growth (%)
The reply should be a number in %, with the unit left off.

1) Cc1nc(Nc2cccc(NC(=O)Nc3ccc(Cl)cc3)c2)c2ccccc2n1	79.3
2) Cl.Fc1c[c-]c(-c2ccccn2)c(F)c1.[Pt].c1ccc([PH+](c2ccccc2)c2ccccc2[PH+](c2ccccc2)c2ccccc2)cc1	-93.5
3) COc1ccc(-n2nnc(C(=O)NCCc3c[nH]c4ccc(F)cc34)c2C)cc1	101

Ask: Which growth is reported for this compound? C=C1c2c(C)nn(-c3ccc(NC(C)=O)cc3)c2N(C)C23CC1C1(C)c4c(C)nn(-c5ccc(NC(C)=O)cc5)c4N(C)C(C)(CC12)C3 (centres undefined)
Result: 30.6

----------
Test system: SF-539 CNS
MEASUREMENT NOTES: NCI-60 one-dose screen, 48 h (100 = growth as untreated, 0 = no growth, -100 = all killed)
COND: 10 µM unless noted
Description: Cells are grown in 96 well plates and exposed to the test compound for 48 hours. Compounds are tested at a single concentration, which is 10^-5 M for most compounds. The reported endpoint is percent growth (GI% or GIPRCNT), where numbers from 0 - 100% represent growth inhibition, and numbers from -100% - 0 represent cell death. For example, a value of 40 represents 60% growth inhibition. A value of 0 means no net growth occurred over the course of the experiment. […]
This is part of a sample that, as a whole, favours compounds with a hit. Of some 83,000 tested, about 20% had one in any assay.
READOUT TYPE: growth (%)
The reply should be a number in %, with the unit left off.

Ask: Which growth is reported for this molecule? Cn1c(NCCc2ccc(O)c(O)c2)nc2c1c(=O)n(Cc1ccc(Cl)cc1)c(=O)n2C
Result: 82.7

Ask: Which growth is reported for this molecule? CN(C)c1ccc2cc(-c3ccc(Cl)c(Cl)c3)c(N)nc2c1
Result: 48.5

----------
Tested on: SR leukemia
MEASUREMENT NOTES: NCI-60 one-dose screen, 48 h (100 = growth as untreated, 0 = no growth, -100 = all killed)
COND: 10 µM unless noted
Method: Growth inhibition of the SR human tumor cell line is measured as a screen for anti-cancer activity. Cells are grown in 96 well plates and exposed to the test compound for 48 hours. Compounds are tested at a single concentration, which is 10^-5 M for most compounds. The reported endpoint is percent growth (GI% or GIPRCNT), where numbers from 0 - 100% represent growth inhibition, and numbers from -100% - 0 represent cell death. For example, a value of 40 represents 60% growth inhibition. […]
About 83,000 compounds went through this panel and 20% of them were active in at least one assay; those are over-represented in the sample as a whole.
// values below are reported growth
The reply should be a number in %, with the unit left off.

Below are worked cases with known answers.
1) CC(C)N(CCOC(=O)Nc1ccccc1Cl)C(C)C	89.7
2) N=C(N)c1ccc(-c2ccc(-c3ccc(Cl)cc3Cl)o2)nc1	1.87
3) COc1cc(NC(=O)c2cccc(-c3cc(=O)c4c(OC)c(OC)c(OC)cc4o3)c2)cc(OC)c1OC	29.8
4) CCOC(=O)N1CCc2c(sc3c2C(=O)N[C@H](c2ccc(OC)cc2)N3)C1	87.7
5) Cc1ccc(/C(=N\N=C(N)N)c2ccccc2)cc1	10.8
6) Cc1ccc2c(n1)C(=O)C(Oc1ccc(F)cc1)=CC2=O	64.6
7) CCCCNCC(=O)Nc1ccc(C(=O)OCC)cc1	87
8) N=C(N)c1ccc(-c2ccc(-c3ccc(Cl)cc3Cl)o2)cc1	2.97

Ask: Which growth is reported for this molecule? CN(C)CCOC(=O)Nc1ccc(Cl)cc1
Result: 101

Ask: Which growth is reported for this molecule? C=C1C(=O)O[C@H]2[C@H]1CC/C(COC(=O)/C=C\C(=O)NCc1ccc(Cn3c(=O)sn(CCCC)c3=O)cc1)=C\CC[C@@]1(C)O[C@@H]21
Result: -24.7

----------
Test system: A549/ATCC NSCLC
MEASUREMENT NOTES: NCI-60 one-dose screen, 48 h
COND: 10 µM unless noted
The panel holds about 83,000 compounds, 20% with a hit somewhere; the sample as a whole holds those more often. Activity calls are given as the source filed them. The calls were made as follows: active = growth percent below 10; inactive = the rest.
Could you please pick one outcome from this set? active, inactive

1. O=C(NCCOCCOCCNc1cccc2c1C(=O)N(C1CCCNC1=O)C2=O)c1cc2c(o1)C(=O)c1ccccc1C2=O (stereo not given)	active
2. C[C@@H]1C(=O)N(C[C@H](Cc2ccccc2)N(Cc2ccccc2)Cc2ccccc2)[C@]1(Cc1ccccc1)C(=O)OC(C)(C)C	inactive
3. COc1cc(C2C=C(c3cccc(NC(C)=O)c3)Nc3ncnn32)cc(OC)c1OC (stereo not given)	inactive

Ask: Look up the recorded call for Clc1ccc(-c2cn(-c3ccccc3)c(-c3ccccc3)n2)cc1 in this test.
Result: inactive

Ask: Look up the recorded call for CS(=O)(=O)c1ccc(-c2[nH]c3ccc(F)cc3c2/C=N/O)cc1 in this test.
Result: inactive

Ask: Look up the recorded call for O=C(O)c1ccccc1C(=O)Nc1ccc(Cl)cc1 in this test.
Result: inactive

Ask: Look up the recorded call for Nc1nc(I)c2ncn(C3OC(CO)C(O)C3O)c2n1 (stereo not given) in this test.
Result: inactive

Ask: Look up the recorded call for COc1cc(-c2ncn(/C=C\c3nnco3)n2)cc(C(F)(F)F)c1 in this test.
Result: inactive

Ask: Look up the recorded call for Cc1ccc(O)c(C(=O)c2ccccc2Cl)c1 in this test.
Result: inactive

Ask: Look up the recorded call for COc1ccccc1NC(=O)Nc1ccc(-c2nc3ccccc3o2)cc1 in this test.
Result: inactive

----------
Test system: NCI-H460 lung
MEASUREMENT NOTES: NCI-60 one-dose screen, 48 h (100 = growth as untreated, 0 = no growth, -100 = all killed)
COND: 10 µM unless noted
Description: Growth inhibition of the NCI-H460 human Non-Small Cell Lung tumor cell line is measured as a screen for anti-cancer activity. Cells are grown in 96 well plates and exposed to the test compound for 48 hours. Compounds are tested at a single concentration, which is 10^-5 M for most compounds. The reported endpoint is percent growth (GI% or GIPRCNT), where numbers from 0 - 100% represent growth inhibition, and numbers from -100% - 0 represent cell death. […]
About 83,000 compounds went through this panel and 20% of them were active in at least one assay; those are over-represented in the sample as a whole.
Please note: growth exactly at 90% is class 0. Only values below 90% get class 1.

Solved entries (count: 4):
1. CCN(CC)CCCNC(=O)c1ccc(N)cc1	class 0
2. OC(COc1cccc2ccccc12)CN1CCN(c2ccccc2)CC1 (centres undefined)	class 0
3. CC1(C)C(=O)/C(=C\c2cccnc2)C[C@]2(C)[C@H]3CC=C4[C@@H]5C[C@@](C)(C(=O)O)CC[C@]5(C)CC[C@@]4(C)[C@]3(C)CC[C@@H]12	class 0
4. CCCCS(=O)(=O)Oc1ccc(-c2nc(C)c(C(=O)OCC)s2)cc1C=O	class 1

Ask: is_below(growth, 90%) for CCCCCCCC/C=C\CCCCCCCC(=O)Oc1cccc2cccnc12 ?
Result: class 0

Ask: is_below(growth, 90%) for CCNCCNc1cc(-c2ccc(Cl)cc2)c(C#N)c2nc3ccccc3n12 ?
Result: class 1

Ask: is_below(growth, 90%) for COc1ccc(/C=N/NC(=O)Cn2c(-c3ccc(S(C)(=O)=O)cc3)nc3cc(Cl)ccc32)cc1 ?
Result: class 1

Ask: is_below(growth, 90%) for Cc1cc(-c2ccc(N(C)C)cc2)c2sc(=O)[nH]c2n1 ?
Result: class 1

Ask: is_below(growth, 90%) for COc1ccc(/C(C)=C(\c2ccc(Cl)cc2)c2ccc(OCCCN(C)C)cc2)cc1F ?
Result: class 1
